Where these numbers come from: patent US8338450B2

target: human recombinant DPP-IV (Homo sapiens); construct: purchased R&D Systems, USA (or produced in-house); assay: Inhibition of human recombinant DPP-IV (Gly-Pro-AMC hydrolysis, fluorometric); format: biochemical; details: compound 10 nM; relative to vehicle controls
READOUT: % inhibition at 10 nM (% inhibition at 10 nM)
Record the value in % inhibition at 10 nM, omitting the unit from your answer.

INPUT: Bench note: what % inhibition at 10 nM did N#C[C@@H]1C[C@@H]2C[C@@H]2N1C(=O)[C@@H](N)C1CC2CCC(C1)N2CCOCc1ccccc1.O=C(O)C(F)(F)F (stereo partly shown) [Compound 50] show?
OUTPUT: 21

INPUT: Bench note: what % inhibition at 10 nM did N#C[C@H]1C[C@H]2C[C@H]2N1C(=O)[C@@H](N)C1CC2CCC(C1)N2C(=O)c1ccnc(F)c1.O=C(O)C(F)(F)F (stereo partly shown) [Compound 29] show?
OUTPUT: 0

INPUT: Bench note: what % inhibition at 10 nM did COc1ccccc1NC(=S)N1C2CCC1CC([C@H](N)C(=O)N1[C@H](C#N)C[C@@H]3C[C@@H]31)C2.O=C(O)C(F)(F)F (stereo partly shown) [Compound 68] show?
OUTPUT: 16

====

Listed below: pIC50 values for each entry.
target: human recombinant DPP-IV (Homo sapiens); assay: Inhibition of human recombinant DPP-IV (Gly-Pro-AMC hydrolysis, fluorometric); conditions: human recombinant DPP-IV, 50 μM Gly-Pro-AMC, 30 min at 30° C.
Where a name gives a salt, the structure may show the parent alone.
Recall that pIC50 is obtained by taking minus log10 of the concentration measured in molar.

Completed entries (count: 2):
# COMPOUND, pIC50
data = [
    ("N#C[C@@H]1C[C@H](F)CN1C(=O)[C@@H](N)C1CC2CCC(C1)N2C(=O)c1cc(F)c(F)cc1F (stereo partly drawn) [Compound 16, trifluoroacetic acid salt]", 8.54),
    ("N#C[C@@H]1C[C@@H]2C[C@@H]2N1C(=O)[C@@H](N)C1CC2CCC(C1)N2C(=O)Cc1ccncc1 (stereo partly drawn) [Compound 54, di trifluoroacetic acid salt]", 8.48),
]

INPUT: Look up pIC50 with human recombinant DPP-IV (Homo sapiens) for this compound: N#C[C@@H]1C[C@H](F)CN1C(=O)[C@@H](N)C1CC2CCC(C1)N2Cc1cc(F)c(F)cc1F (stereo partly drawn) [Compound 19, trifluoroacetic acid salt]
OUTPUT: 8.20

====

target: human recombinant DPP-IV (Homo sapiens, UniProt P27487); construct: purchased R&D Systems, USA (or produced in-house); test: Inhibition of human recombinant DPP-IV (Gly-Pro-AMC hydrolysis, fluorometric); format: biochemical; details: compound 10 nM; relative to vehicle controls
Sequence (P27487 whole entry): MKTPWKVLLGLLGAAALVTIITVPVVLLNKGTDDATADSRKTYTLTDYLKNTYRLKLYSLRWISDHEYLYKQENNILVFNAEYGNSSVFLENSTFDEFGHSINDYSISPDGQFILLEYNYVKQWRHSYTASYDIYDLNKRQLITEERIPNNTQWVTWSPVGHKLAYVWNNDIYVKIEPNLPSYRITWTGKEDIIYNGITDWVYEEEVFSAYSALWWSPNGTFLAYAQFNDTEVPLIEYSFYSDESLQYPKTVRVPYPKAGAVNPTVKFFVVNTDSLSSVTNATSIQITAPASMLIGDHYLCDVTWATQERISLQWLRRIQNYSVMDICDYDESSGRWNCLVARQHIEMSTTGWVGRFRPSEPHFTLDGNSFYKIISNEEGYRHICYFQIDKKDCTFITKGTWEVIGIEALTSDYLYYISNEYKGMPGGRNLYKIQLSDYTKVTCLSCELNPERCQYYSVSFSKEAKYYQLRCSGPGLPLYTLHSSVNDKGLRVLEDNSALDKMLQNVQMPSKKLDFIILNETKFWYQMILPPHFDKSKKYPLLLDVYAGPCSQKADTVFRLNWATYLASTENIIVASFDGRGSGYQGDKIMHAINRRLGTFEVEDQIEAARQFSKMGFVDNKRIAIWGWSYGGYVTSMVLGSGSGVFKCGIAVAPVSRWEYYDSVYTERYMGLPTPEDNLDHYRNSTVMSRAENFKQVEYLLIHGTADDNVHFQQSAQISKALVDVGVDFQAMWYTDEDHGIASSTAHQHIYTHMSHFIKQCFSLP
READOUT: % inhibition at 10 nM (% inhibition at 10 nM)
Record the value in % inhibition at 10 nM, omitting the unit from your answer.

# MOLECULE, SCALE UNIT, % inhibition at 10 nM
data = [
    ("N#C[C@@H]1C[C@@H]2C[C@@H]2N1C(=O)[C@@H](N)C1CC2CCC(C1)N2CC1CCCCC1.O=C(O)C(F)(F)F (stereo partly shown)", "% inhibition at 10 nM", 22),
    ("N#C[C@@H]1C[C@@H]2C[C@@H]2N1C(=O)[C@@H](N)C1CC2CCC(C1)N2Cc1ccncc1.O=C(O)C(F)(F)F (stereo partly shown)", "% inhibition at 10 nM", 45),
    ("N#C[C@H]1C[C@H]2C[C@H]2N1C(=O)[C@@H](N)C1CC2CCC(C1)N2C(=O)c1cnccn1.O=C(O)C(F)(F)F (stereo partly shown)", "% inhibition at 10 nM", 7),
]

INPUT: Bench note: what % inhibition at 10 nM did N#C[C@@H]1C[C@@H]2C[C@@H]2N1C(=O)[C@@H](N)C1CC2CCC(C1)N2CCC(F)(F)F.O=C(O)C(F)(F)F (stereo partly shown) show?
OUTPUT: 29

====

Listed below: IC50 values for each entry.
molecular target: human recombinant DPP-IV (Homo sapiens, UniProt P27487); assay: Inhibition of human recombinant DPP-IV (Gly-Pro-AMC hydrolysis, fluorometric); conditions: human recombinant DPP-IV, 50 μM Gly-Pro-AMC, 30 min at 30° C.
Structures can show the parent of a compound that is named as a salt.
Just so you know, I need the unit written after the number.

INPUT: Bench note: what IC50 did N#C[C@@H]1C[C@@H]2C[C@@H]2N1C(=O)[C@@H](N)C1CC2CCC(C1)N2C(=O)c1cccs1 (stereo partly drawn) [Compound 34, trifluoroacetic acid salt] show?
OUTPUT: 12.9 nM

INPUT: Bench note: what IC50 did CC(=O)N1CCC(C(=O)N2C3CCC2CC([C@H](N)C(=O)N2[C@H](C#N)C[C@@H]4C[C@@H]42)C3)CC1 (stereo partly drawn) [Compound 69, trifluoroacetic acid salt] show?
OUTPUT: 13 nM

INPUT: Bench note: what IC50 did C#C[C@H]1CC[C@@H](C#N)N1C(=O)[C@@H](N)C1CC2CCC(C1)N2C(=O)c1ccnc(F)c1 (stereo partly drawn) [Compound 66, acetic acid salt] show?
OUTPUT: 8.24 nM

INPUT: Bench note: what IC50 did C#C[C@H]1CC[C@@H](C#N)N1C(=O)[C@@H](N)C1CC2CCC(C1)N2C(=O)c1ccc2c(c1)OCO2.O=C(O)C(F)(F)F (stereo partly drawn) [Compound 67, trifluoroacetic acid salt] show?
OUTPUT: 7.68 nM

INPUT: Bench note: what IC50 did C#C[C@H]1CC[C@@H](C#N)N1C(=O)[C@@H](N)C1CC2CCC(C1)N2C(=O)c1ccc(C(F)(F)F)cc1 (stereo partly drawn) [Compound 63, acetic acid salt] show?
OUTPUT: 15.5 nM

INPUT: Bench note: what IC50 did N#C[C@@H]1C[C@@H]2C[C@@H]2N1C(=O)[C@@H](N)C1CC2CCC(C1)N2C(=O)c1cccnc1 (stereo partly drawn) [Compound 33, di trifluoroacetic acid salt] show?
OUTPUT: 9.43 nM

====

biological target: human recombinant DPP-IV (Homo sapiens, UniProt P27487); assay: Inhibition of human recombinant DPP-IV (Gly-Pro-AMC hydrolysis, fluorometric); details: human recombinant DPP-IV, 50 μM Gly-Pro-AMC, 30 min at 30° C.
Counter-ions that a name gives are not always drawn.
Listed below: IC50 values for each entry.
Record the value in nM, omitting the unit from your answer.

# COMPOUND, TARGET OR SYSTEM, IC50 (nM)
records = [
    ("CS(=O)(=O)N1C2CCC1CC([C@H](N)C(=O)N1[C@H](C#N)C[C@@H]3C[C@@H]31)C2 (stereo partly drawn) [Compound 56, trifluoroacetic acid salt]", "human recombinant DPP-IV (Homo sapiens, UniProt P27487)", 4.14),
]

INPUT: Bench note: what IC50 did N#C[C@@H]1C[C@@H]2C[C@@H]2N1C(=O)[C@@H](N)C1CC2CCC(C1)N2C(=O)c1ccc2c(c1)OCO2 (stereo partly drawn) [Compound 44, trifluoroacetic acid salt] show?
OUTPUT: 2.4

INPUT: Bench note: what IC50 did N#C[C@@H]1C[C@@H]2C[C@@H]2N1C(=O)[C@@H](N)C1CC2CCC(C1)N2C(=O)c1cccnc1F (stereo partly drawn) [Compound 32, trifluoroacetic acid salt] show?
OUTPUT: 6.84

INPUT: Bench note: what IC50 did N#C[C@@H]1CCCN1C(=O)[C@@H](N)C1CC2CCC(C1)N2C(=O)C12CC3CC(CC(C3)C1)C2 (stereo partly drawn) [Compound 3, trifluoroacetic acid salt] show?
OUTPUT: 6.67

INPUT: Bench note: what IC50 did N#C[C@@H]1CCCN1C(=O)[C@@H](N)C1CC2CCC(C1)N2C(=O)c1cc(F)c(F)cc1F (stereo partly drawn) [Compound 1, trifluoroacetic acid salt] show?
OUTPUT: 2.2

INPUT: Bench note: what IC50 did N#C[C@@H]1CCCN1C(=O)[C@@H](N)C1CC2CCC(C1)N2C(=O)Nc1ccc(C(F)(F)F)cc1 (stereo partly drawn) [Compound 22, trifluoroacetic acid salt] show?
OUTPUT: 2.83

INPUT: Bench note: what IC50 did N#C[C@@H]1C[C@H](F)CN1C(=O)[C@@H](N)C1CC2CCC(C1)N2C(=O)c1cc(F)ccc1F (stereo partly drawn) [Compound 17, trifluoroacetic acid salt] show?
OUTPUT: 2.4

INPUT: Bench note: what IC50 did N#C[C@@H]1C[C@@H]2C[C@@H]2N1C(=O)[C@@H](N)C1CC2CCC(C1)N2C(=O)c1cc(F)ccc1F (stereo partly drawn) [Compound 27, trifluoroacetic acid salt] show?
OUTPUT: 17.2

INPUT: Bench note: what IC50 did N#C[C@@H]1C[C@@H]2C[C@@H]2N1C(=O)[C@@H](N)C1CC2CCC(C1)N2C(=O)c1cnccn1.O=C(O)C(F)(F)F (stereo partly drawn) [Compound 35, trifluoroacetic acid salt] show?
OUTPUT: 4.2
